Test system: P815
protocol_description: In vitro inhibitory activity against P815/ara-C cell line
Assay type: functional
reported_conditions: Mus musculus, read-out: ID50 (the source's name)
reported_property: IC50 (µM)
Express it in µM; write the number only.

Guide cases for IC50, answers given:
* C#Cc1cn([C@@H]2O[C@H](CO)[C@@H](O)[C@@H]2F)c(=O)[nH]c1=O | 84.7
* C[Si](C)(C)C#Cc1cn([C@@H]2O[C@H](CO)[C@@H](O)[C@@H]2F)c(=O)[nH]c1=O | 107
* Cc1cn([C@@H]2O[C@H](CO)[C@@H](O)[C@@H]2F)c(=O)[nH]c1=O | 12.4

Consider the record given below.
Lookup result for "C=Cc1cn([C@@H]2O[C@H](CO)[C@@H](O)[C@@H]2F)c(=O)[nH]c1=O" ; measured IC50: 32.8

###

Each entry below lists one item and its recorded IC50 value.
System: L1210
protocol_description: In vitro inhibitory activity against L1212/0 cell line
Assay type: functional
reported_conditions: Mus musculus, read-out: ID50 (the source's name)
Express it in µM; write the number only.

* C=Cc1cn([C@@H]2O[C@H](CO)[C@@H](O)[C@@H]2F)c(=O)nc1N | 10.7
* C=Cc1cn([C@@H]2O[C@H](CO)[C@@H](O)[C@@H]2F)c(=O)[nH]c1=O | 29
* C#Cc1cn([C@@H]2O[C@H](CO)[C@@H](O)[C@@H]2F)c(=O)nc1N | 10.1
* C#Cc1cn([C@@H]2O[C@H](CO)[C@@H](O)[C@@H]2F)c(=O)[nH]c1=O | 23.5
* Cc1cn([C@@H]2O[C@H](CO)[C@@H](O)[C@@H]2F)c(=O)[nH]c1=O | 2.95

Consider the record given below.
Tested on L1210, the item "C[Si](C)(C)C#Cc1cn([C@@H]2O[C@H](CO)[C@@H](O)[C@@H]2F)c(=O)[nH]c1=O" showed IC50 equal to 17.8

###

Tested on: Human alphaherpesvirus 2
protocol_description: Antiviral activity against herpes simplex type-2 expressed as ED90
Type: functional
reported_property: ED90 (µM)
Express it in µM; write the number only.

Guide cases for ED90, answers given:
* Cc1cn([C@@H]2O[C@H](CO)[C@@H](O)[C@@H]2F)c(=O)[nH]c1=O | 0.09
* C=Cc1cn([C@@H]2O[C@H](CO)[C@@H](O)[C@@H]2F)c(=O)[nH]c1=O | 0.56
* C#Cc1cn([C@@H]2O[C@H](CO)[C@@H](O)[C@@H]2F)c(=O)[nH]c1=O | 7.9
* O=c1[nH]c(=O)n([C@@H]2O[C@H](CO)[C@@H](O)[C@@H]2F)cc1/C=C/I | 0.84

Lookup result for "C[Si](C)(C)C#Cc1cn([C@@H]2O[C@H](CO)[C@@H](O)[C@@H]2F)c(=O)[nH]c1=O" ; measured ED90: 32.1

Lookup result for "C=Cc1cn([C@@H]2O[C@H](CO)[C@@H](O)[C@@H]2F)c(=O)nc1N" ; measured ED90: 0.59

Lookup result for "CCc1cn([C@@H]2O[C@H](CO)[C@@H](O)[C@@H]2F)c(=O)nc1N" ; measured ED90: 4.9

###

subject_of_test: UniProt:Q6L709
protocol_description: Effect on thymidine kinase in the herpes simplex type-2 infected cells
Format: functional
Parameters: concentration or dose not given beside the values
Each entry below lists one item and its recorded Control value.
Express it in %; write the number only.

* CCc1cn([C@@H]2O[C@H](CO)[C@@H](O)[C@@H]2F)c(=O)nc1N | 101
* O=c1[nH]c(=O)n([C@H]2C[C@H](O)[C@@H](CO)O2)cc1/C=C/Br [BRIVUDINE] | 110
* C=Cc1cn([C@@H]2O[C@H](CO)[C@@H](O)[C@@H]2F)c(=O)nc1N | 111
* Nc1nc(=O)n([C@@H]2O[C@H](CO)[C@@H](O)[C@@H]2F)cc1/C=C/Br | 104
* O=c1[nH]c(=O)n([C@@H]2O[C@H](CO)[C@@H](O)[C@@H]2F)cc1/C=C/I | 96.2

Lookup result for "C=Cc1cn([C@@H]2O[C@H](CO)[C@@H](O)[C@@H]2F)c(=O)[nH]c1=O" ; measured Control: 109

###

Each entry below lists one item and its recorded ED90 value.
System: Human alphaherpesvirus 2
protocol_description: Antiviral activity against herpes simplex type-2 expressed as ED90
Type: functional
Express it in µM; write the number only.

- O=c1[nH]c(=O)n([C@@H]2O[C@H](CO)[C@@H](O)[C@@H]2F)cc1/C=C/Cl: 5.5
- O=c1[nH]c(=O)n([C@@H]2O[C@H](CO)[C@@H](O)[C@@H]2F)cc1/C=C/Br: 0.73
- Cc1cn([C@@H]2O[C@H](CO)[C@@H](O)[C@@H]2F)c(=O)nc1N: 0.1

Lookup result for "Nc1nc(=O)n([C@@H]2O[C@H](CO)[C@@H](O)[C@@H]2F)cc1/C=C/I" ; measured ED90: 2.3

###

subject_of_test: Thymidine kinase (Human herpesvirus 2) (UniProt Q6L709)
Sequence (Q6L709 as listed by the source): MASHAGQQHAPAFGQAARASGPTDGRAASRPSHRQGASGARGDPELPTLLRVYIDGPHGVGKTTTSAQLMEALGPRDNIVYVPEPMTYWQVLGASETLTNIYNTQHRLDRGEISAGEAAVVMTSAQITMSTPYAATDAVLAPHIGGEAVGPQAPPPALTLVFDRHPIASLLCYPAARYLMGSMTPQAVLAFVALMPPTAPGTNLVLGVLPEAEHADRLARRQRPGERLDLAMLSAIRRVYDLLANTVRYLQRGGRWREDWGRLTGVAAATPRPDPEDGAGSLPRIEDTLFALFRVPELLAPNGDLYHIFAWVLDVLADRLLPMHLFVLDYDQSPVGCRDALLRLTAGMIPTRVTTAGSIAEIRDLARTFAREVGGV
protocol_description: Effect on thymidine kinase in the herpes simplex type-2 infected cells
Format: functional
Parameters: concentration or dose not given beside the values
Could you mark each record Criterion met if its Control falls strictly under 90%, and Criterion not met if it equals or exceeds it?

• Nc1nc(=O)n([C@@H]2O[C@H](CO)[C@@H](O)[C@@H]2F)cc1/C=C/C(=O)[O-].[Na+] = Criterion not met
• Cc1cn([C@@H]2O[C@H](CO)[C@@H](O)[C@@H]2F)c(=O)nc1N = Criterion not met
• Nc1nc(=O)n([C@@H]2O[C@H](CO)[C@@H](O)[C@@H]2F)cc1/C=C/I = Criterion not met
• C#Cc1cn([C@@H]2O[C@H](CO)[C@@H](O)[C@@H]2F)c(=O)nc1N = Criterion met
• C[Si](C)(C)C#Cc1cn([C@@H]2O[C@H](CO)[C@@H](O)[C@@H]2F)c(=O)[nH]c1=O = Criterion not met

Query: I'd appreciate it if you could check whether Cc1cn([C@@H]2O[C@H](CO)[C@@H](O)[C@@H]2F)c(=O)[nH]c1=O [5-METHYL-2'-FLUOROARAURACIL] has Control smaller than 90%.
Reply: Criterion not met

Query: I'd appreciate it if you could check whether "O=c1[nH]c(=O)n([C@@H]2O[C@H](CO)[C@@H](O)[C@@H]2F)cc1/C=C/Br" has Control smaller than 90%.
Reply: Criterion met

Query: I'd appreciate it if you could check whether "O=c1[nH]c(=O)n([C@@H]2O[C@H](CO)[C@@H](O)[C@@H]2F)cc1/C=C/Cl" has Control smaller than 90%.
Reply: Criterion not met

###

Each entry below lists one item and its recorded selectivity ratio value.
Test system: Human alphaherpesvirus 1 (HSV-1)
protocol_description: Ratio of ID50/ID90 in HSV-1 infected cells
Format: ADME, organism-based
reported_conditions: human alphaherpesvirus 1, HSV-1 infected cells; read-out: Therapeutic index
No unit in the answer, please; the number alone is enough.

- C=Cc1cn([C@@H]2O[C@H](CO)[C@@H](O)[C@@H]2F)c(=O)nc1N: 103
- O=c1[nH]c(=O)n([C@@H]2O[C@H](CO)[C@@H](O)[C@@H]2F)cc1/C=C/Cl: 227
- O=c1[nH]c(=O)n([C@@H]2O[C@H](CO)[C@@H](O)[C@@H]2F)cc1/C=C/Br: 216

Consider the record given below.
Lookup result for "O=c1[nH]c(=O)n([C@H]2C[C@H](O)[C@@H](CO)O2)cc1/C=C/Br" ; measured selectivity ratio: 3080

###

Each entry below lists one item and its recorded ED90 value.
Tested on: Human alphaherpesvirus 2
protocol_description: Antiviral activity against herpes simplex type-2 expressed as ED90
Format: functional
Express it in µM; write the number only.

Guide cases for ED90, answers given:
* Nc1nc(=O)n([C@@H]2O[C@H](CO)[C@@H](O)[C@@H]2F)cc1/C=C/Br | 4.5
* O=c1[nH]c(=O)n([C@H]2C[C@H](O)[C@@H](CO)O2)cc1/C=C/Br [BRIVUDINE] | 17

Consider the record given below.
Lookup result for "C#Cc1cn([C@@H]2O[C@H](CO)[C@@H](O)[C@@H]2F)c(=O)nc1N" ; measured ED90: 6
